system: RARb homodimer (NR concentration 270 nM); experiment: PBM binding z-score (relative to random genomic background probes); higher = stronger binding; sequences stand for … in GC…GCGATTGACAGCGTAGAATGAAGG
OBSERVABLE: PBM binding z-score
Kindly provide the number alone.

Solved entries:
SEQ	PBM binding z-score
CAAACTAGGTCAAGAGGTAAAAGTCCGCTTCCCG	3.32
CCTAGCAGGCCAAGGTCACTCAAGCATTTCGCTT	3.82

GET /values?readout=PBM binding z-score&item= "ATCTCTAGGTAACCAAGTTCAGGGAATGCCGAAC"
1.55

GET /values?readout=PBM binding z-score&item= "CCGCGGAGGACAGAAGGTCAGAGCTGTCCGCTTT"
3.51

GET /values?readout=PBM binding z-score&item= "CGAACTCGGTCAGAACAGGACAGTGAAGGATGAT"
1.03
